# Measurement Description: logP determination by HPLC (formic acid method)
# Assay type: physicochemical
# Settings: reversed-phase HPLC column (C18), pH 3.4, HPLC on reversed-phase column (C18), acidic range (pH 3.4), 55° C.; read-out: logP (HCOOH)
Endpoint Name: chromatographic logP
Answers are plain numbers.

Some compounds with recorded chromatographic logP:
The compound "Cc1nc(-c2cccnc2)sc1-c1ccnc(-c2ccco2)n1" showed chromatographic logP equal to 2.35

The compound "Cc1noc(Cn2ccc(-c3sc(-c4cccnc4)nc3C)n2)n1" showed chromatographic logP equal to 1.71

The compound "Cc1nc(-c2cccnc2)sc1-c1ccnn1-c1ncccn1" showed chromatographic logP equal to 1.47

The compound "Cc1nc(-c2cccnc2)sc1-c1cccc(-n2ccnn2)n1" showed chromatographic logP equal to 2.13

The compound "Cc1nc(-c2cccnc2)sc1-c1cccc(-n2cccn2)n1" showed chromatographic logP equal to 2.93

The compound "Cn1c(C(F)(F)F)nn(-c2cccc(-c3cnc(-c4cccnc4)s3)n2)c1=O" showed chromatographic logP equal to 2.35

State recorded chromatographic logP for all listed compounds.
1. Cc1nc(-c2cccnc2)sc1-c1cccc(C(F)(F)F)c1
2. COCCNC(=O)n1ccc(-c2sc(-c3cccnc3)nc2C)n1
3. Cc1cnn(-c2cccc(-c3cnc(-c4cccnc4)s3)n2)c1
4. O=C1CCCCN1c1cccc(-c2cnc(-c3cccnc3)s2)n1
5. Cc1nc(-c2cccnc2)sc1-c1ccnc(-c2ncc(F)cc2F)n1
6. Cc1nc(-c2cccnc2)sc1-n1ccc(-c2cccs2)n1
7. COc1cc(OC)nc(-n2ccc(-c3sc(-c4cccnc4)nc3C)n2)n1
8. CCOCC(C)NC(=O)n1ccc(-c2sc(-c3cccnc3)nc2C)n1 (stereo not shown)

1. 3.55
2. 1.87
3. 3.08
4. 1.87
5. 2.08
6. 2.84
7. 2.8
8. 2.69

----------
# Measurement Description: logP determination by HPLC (formic acid method)
# Type: physicochemical
# Settings: reversed-phase HPLC column (C18), pH 3.4, HPLC on reversed-phase column (C18), acidic range (pH 3.4), 55° C.; read-out: logP (HCOOH)
# Description: 1) Description of the method for determining the logP values (formic acid method) The logP values given in the table were determined in accordance with EEC Directive 79/831 Annex V.A8 by HPLC (High Performance Liquid Chromatography) on a reversed-phase column (C18). Temperature: 55° C. Mobile phases for the determination in the acidic range (pH 3.4): Mobile phase A: Acetonitrile+1 ml of formic acid/litre. Mobile phase B: water+0.9 ml of formic acid/litre. […]
Classify by measured chromatographic logP: y if it is equal to or exceeds 2, n if it is smaller.

Worked examples, 9 compounds total:
# check: chromatographic logP of "Fc1cncc(-c2ncc(-c3cccc(-c4ncccn4)n3)s2)c1" is greater than or equal to 2
y

# check: chromatographic logP of "Cc1nc(-c2cccnc2)sc1-c1ccn(C(=S)NCC(F)(F)F)n1" is greater than or equal to 2
y

# check: chromatographic logP of "Cc1nc(-c2cccnc2)sc1-c1nc(C(C)C)no1" is greater than or equal to 2
y

# check: chromatographic logP of "Cn1nc(-c2cccnc2)cc1-c1cccnc1Cl" is greater than or equal to 2
n

# check: chromatographic logP of "Cc1cc(C)nc(-c2nc(-c3sc(-c4cccnc4)nc3C)cs2)n1" is greater than or equal to 2
y

# check: chromatographic logP of "Cn1nc(-c2cccnc2)cc1-c1cccc(Br)n1" is greater than or equal to 2
n

# check: chromatographic logP of "Cc1cc(-c2sc(-c3cncc(F)c3)nc2C)nc(-c2ncccn2)n1" is greater than or equal to 2
n

# check: chromatographic logP of "COc1ccc(-c2cc(-c3cccnc3)nn2C)cn1" is greater than or equal to 2
n

# check: chromatographic logP of "CCc1cccc(-c2nccc(-c3sc(-c4cccnc4)nc3C)n2)n1" is greater than or equal to 2
n

More entries:
# check: chromatographic logP of "Cc1nc(-c2cccnc2)sc1-n1ccc(C(F)(F)F)n1" is greater than or equal to 2
y

----------
# Measurement Description: logP determination by HPLC (formic acid method)
# Assay type: physicochemical
# Settings: reversed-phase HPLC column (C18), pH 3.4, HPLC on reversed-phase column (C18), acidic range (pH 3.4), 55° C.; read-out: logP (HCOOH)
Classify by measured chromatographic logP: Y if it is equal to or exceeds 2, N if it is smaller.

Worked examples, 3 molecules total:
# check: chromatographic logP of "c1cncc(-c2ncc(-c3cccc(-n4nccn4)n3)s2)c1" is greater than or equal to 2
N

# check: chromatographic logP of "c1cncc(-c2ncc(-c3cnc(-c4cccnc4)s3)s2)c1" is greater than or equal to 2
N

# check: chromatographic logP of "CS(=O)(=O)c1cccc(-c2cnc(-c3cccnc3)s2)n1" is greater than or equal to 2
N

More entries:
# check: chromatographic logP of "FC(F)(F)c1cccc(-c2cnc(-c3cccnc3)s2)n1" is greater than or equal to 2
Y

# check: chromatographic logP of "COC(=O)c1cccc(-c2cnc(-c3cccnc3)s2)n1" is greater than or equal to 2
N

# check: chromatographic logP of "Cc1nc(-c2cccnc2)sc1-c1ccn(C(=O)NC2CCCCC2)n1" is greater than or equal to 2
Y

# check: chromatographic logP of "Cc1nc(-c2cccnc2)sc1-c1ccn(C(=O)NC(C)(C)C(C)C)n1" is greater than or equal to 2
Y

# check: chromatographic logP of "Cc1nc(-c2cccnc2)sc1-c1ccn(-c2nnc(C(C)C)s2)n1" is greater than or equal to 2
Y

Origin of measurements: patent US9451775B2
